Biological target: bradykinin 1 receptor (B1R) of the rat (Rattus norvegicus, UniProt P97583)
Construct: expressed in transfected cells; host or cells: CHO K1 cells
Sequence (P97583 1-337): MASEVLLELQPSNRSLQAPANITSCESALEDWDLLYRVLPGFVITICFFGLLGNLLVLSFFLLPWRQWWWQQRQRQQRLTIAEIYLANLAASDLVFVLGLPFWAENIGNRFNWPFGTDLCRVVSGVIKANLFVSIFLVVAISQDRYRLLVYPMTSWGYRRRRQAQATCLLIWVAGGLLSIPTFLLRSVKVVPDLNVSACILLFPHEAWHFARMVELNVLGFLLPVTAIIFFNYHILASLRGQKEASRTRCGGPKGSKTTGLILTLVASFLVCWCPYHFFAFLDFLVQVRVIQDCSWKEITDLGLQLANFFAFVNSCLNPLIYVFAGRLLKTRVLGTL
Assay: Functional investigation on the rat bradykinin 1 receptor (B1R), Ca2+ FLIPR assay in CHO K1 rB1R cells
Format: cell-based
Settings: B1R antagonism rat; test substance 10 μM; Ca2+ FLIPR, CHO K1 rB1R cells
Give B1R Ant. r [10 μM] % Inhibition for every item shown.
One number for each entry, in %.

>  <COMPOUND>
COc1ccc(S(=O)(=O)N2CCCCC2COCC(=O)NC2CCC(C(c3cccc(F)c3)N(C)C)CC2)c(OC)c1 (stereo not shown) [Example 322]

>  <B1R Ant. r [10 μM] % Inhibition, %>
6

$$$$
>  <COMPOUND>
COc1ccc(S(=O)(=O)N2CCCCC2COCC(=O)NC2CCC(C(c3cccs3)N(C)C)CC2)cc1OC (stereo not shown) [Example 261]

>  <B1R Ant. r [10 μM] % Inhibition, %>
−3

$$$$

Take each entry in turn and give its B1R Ant. r [10 μM] % Inhibition.
1. CN(C)C(c1ccc(F)cc1)C1CCC(CCNC(=O)COC2CCN(S(=O)(=O)c3ccc(Cl)cc3Cl)C2)CC1 (stereo not shown) [Example 456]
2. CN(CCOCC(=O)NC1CCC(C(c2ccccc2)N2CCOCC2)CC1)S(=O)(=O)c1c(Cl)cc(Cl)cc1Cl (stereo not shown) [Example 638]

Response given:
1. 48
2. 21

----------
Molecular target: serotonin (5-HT) reuptake (Rattus norvegicus, UniProt P31652)
Construct: synaptosomes are freshly isolated from areas of the rat brain; from tissue; host or cells: rat brain synaptosomes (P2 fraction)
Sequence (P31652 whole entry): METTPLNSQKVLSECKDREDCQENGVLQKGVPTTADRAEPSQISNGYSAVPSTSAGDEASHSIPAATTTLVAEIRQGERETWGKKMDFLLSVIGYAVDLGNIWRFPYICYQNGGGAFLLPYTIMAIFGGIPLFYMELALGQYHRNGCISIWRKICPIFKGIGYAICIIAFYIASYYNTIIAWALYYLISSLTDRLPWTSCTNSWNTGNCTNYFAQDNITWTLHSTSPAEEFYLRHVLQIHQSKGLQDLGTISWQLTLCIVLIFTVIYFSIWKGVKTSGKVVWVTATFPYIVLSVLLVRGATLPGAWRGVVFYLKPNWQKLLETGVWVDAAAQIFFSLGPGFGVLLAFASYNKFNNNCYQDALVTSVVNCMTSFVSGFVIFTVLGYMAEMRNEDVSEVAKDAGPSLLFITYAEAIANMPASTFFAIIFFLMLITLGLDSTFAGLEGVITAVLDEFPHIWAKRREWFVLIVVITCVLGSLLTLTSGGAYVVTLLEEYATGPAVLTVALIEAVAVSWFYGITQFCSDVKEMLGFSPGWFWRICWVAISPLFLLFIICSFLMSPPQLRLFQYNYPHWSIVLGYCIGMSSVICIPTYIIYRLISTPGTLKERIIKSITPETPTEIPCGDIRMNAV
Test: Inhibition of serotonin (5HT) reuptake in synaptosomes from rat brain
Assay type: biochemical
Conditions: test concentration of 10 μM; 10 µM
Give 5-HT (inhibition of reuptake of serotonin, % inhibition) for every item shown.
Answers are plain numbers, in %.

>  <COMPOUND>
COc1ccc(S(=O)(=O)N2CCCCC2COCC(=O)NCC2CCC(C(CCc3ccccc3)N(C)C)CC2)c(OC)c1 (stereo not shown) [Example 486]

>  <TESTED TARGET>
serotonin (5-HT) reuptake (Rattus norvegicus, UniProt P31652)

>  <READOUT UNIT>
%

>  <QUANTITATIVE RESULT>
73

$$$$
>  <COMPOUND>
COc1ccc(S(=O)(=O)N2CCCCC2COCC(=O)NCC2CCC(C(CCc3ccccc3)N(C)C)CC2)cc1OC (stereo not shown) [Example 559]

>  <TESTED TARGET>
serotonin (5-HT) reuptake (Rattus norvegicus, UniProt P31652)

>  <READOUT UNIT>
%

>  <QUANTITATIVE RESULT>
84

$$$$
>  <COMPOUND>
COc1ccc(S(=O)(=O)N2CCCCC2COCC(=O)NCC2CCC(C(c3ccc(F)cc3)N(C)C)CC2)cc1OC (single isomer, unassigned) [Example 537]

>  <TESTED TARGET>
serotonin (5-HT) reuptake (Rattus norvegicus, UniProt P31652)

>  <READOUT UNIT>
%

>  <QUANTITATIVE RESULT>
92

$$$$
>  <COMPOUND>
CC(Oc1ccccc1)C(=O)NCC1CCC(C(c2cccc(F)c2)N(C)C)CC1 (stereo not shown) [Example 122]

>  <TESTED TARGET>
serotonin (5-HT) reuptake (Rattus norvegicus, UniProt P31652)

>  <READOUT UNIT>
%

>  <QUANTITATIVE RESULT>
57

$$$$
>  <COMPOUND>
COc1ccc(S(=O)(=O)N2CCCCC2COCC(=O)NCCC2CCC(C(c3cccc(F)c3)N(C)C)CC2)cc1OC (stereo not shown)

>  <TESTED TARGET>
serotonin (5-HT) reuptake (Rattus norvegicus, UniProt P31652)

>  <READOUT UNIT>
%

>  <QUANTITATIVE RESULT>
70

$$$$

Take each entry in turn and give its 5-HT (inhibition of reuptake of serotonin, % inhibition).
1. CN(C)C(CCc1ccccc1)C1CCC(CNC(=O)COCCN(C)S(=O)(=O)c2c(Cl)cccc2Cl)CC1 (stereo not shown) [Example 476]
2. COc1ccc(S(=O)(=O)N2CCCCC2COCC(=O)NCC2CCC(C(CCc3ccccc3)N(C)C)CC2)cc1OC (stereo not shown) [Example 570]

Response given:
1. 80
2. 87
